- tested on: Fuc(a1-2)Gal(b1-3)[Fuc(a1-4)]GlcNAc(b1-3)[Gal(b1-4)GlcNAc(b1-6)]Gal(b1-4)Glc
- experiment: glycan array binding signal (z-score within array); higher = stronger binding
- condition parameters: glycan notation: IUPAC condensed, linker removed
The full list was thinned out, with the strongest signals kept by preference.
Would you please tag the item rule met when its glycan array binding signal (z-score) is -0.2 or above, and rule not met when it is below?

Worked examples, 4 binders total:
SP15308C-bot-338-23-338 (Bacteroides ovatus) (protein) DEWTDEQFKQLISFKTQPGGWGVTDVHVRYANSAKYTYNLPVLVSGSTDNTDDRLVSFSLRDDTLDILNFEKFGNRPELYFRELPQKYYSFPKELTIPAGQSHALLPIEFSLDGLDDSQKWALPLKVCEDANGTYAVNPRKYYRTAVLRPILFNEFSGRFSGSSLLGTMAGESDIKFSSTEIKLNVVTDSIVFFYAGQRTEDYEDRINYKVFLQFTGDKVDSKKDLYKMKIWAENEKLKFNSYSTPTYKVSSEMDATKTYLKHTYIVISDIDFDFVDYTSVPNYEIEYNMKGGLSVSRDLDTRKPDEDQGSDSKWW : rule not met
XTP3-B-MRH1 (Homo sapiens), Q96DZ1 (protein) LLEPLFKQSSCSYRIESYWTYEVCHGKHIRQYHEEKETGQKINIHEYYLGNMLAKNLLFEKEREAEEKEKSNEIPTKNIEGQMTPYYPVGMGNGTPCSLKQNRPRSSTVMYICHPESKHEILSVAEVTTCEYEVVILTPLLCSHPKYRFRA : rule met
Nictaba (Nicotiana tabacum), Q94EW1 (protein) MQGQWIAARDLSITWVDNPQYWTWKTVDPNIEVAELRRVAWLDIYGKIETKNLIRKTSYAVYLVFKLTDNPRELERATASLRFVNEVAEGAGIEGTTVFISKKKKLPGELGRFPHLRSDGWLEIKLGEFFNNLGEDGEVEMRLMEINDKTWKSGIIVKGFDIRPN : rule not met
AT3G44510(29) (Arabidopsis thaliana), F4J341 (protein) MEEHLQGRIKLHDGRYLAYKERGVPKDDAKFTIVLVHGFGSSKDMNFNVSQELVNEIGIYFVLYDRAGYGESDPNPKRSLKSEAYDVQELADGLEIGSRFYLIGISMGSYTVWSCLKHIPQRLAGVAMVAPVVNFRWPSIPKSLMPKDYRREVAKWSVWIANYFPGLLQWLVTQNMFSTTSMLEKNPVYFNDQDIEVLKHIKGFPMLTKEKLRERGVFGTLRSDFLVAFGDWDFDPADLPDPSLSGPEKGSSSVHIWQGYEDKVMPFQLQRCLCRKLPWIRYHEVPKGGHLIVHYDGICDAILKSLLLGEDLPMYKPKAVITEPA : rule met

Now consider a different binder.
glycan array binding signal (z-score) >= -0.2 for KISKRILTGKK [NK11 (Sus scrofa)] ?
rule not met

Where do these numbers come from? They come from the supplement of paper PMC8728848.
